- stated-conditions: 373.15 K; Liquid; Closed cell (Static) method
Kindly state vapor or sublimation pressure for each of the entries shown.
Answers are plain numbers, in kPa.

molecule | metric | scale-unit | measured-number
CCCCCC(=O)OCC [ethyl hexanoate] | vapor or sublimation pressure | kPa | 11.35
CCCCCCCCCCCCCC(=O)OCC [ethyl tetradecanoate] | vapor or sublimation pressure | kPa | 0.0326
CCCCCCCCCC(=O)OCC [ethyl decanoate] | vapor or sublimation pressure | kPa | 0.5827

## Input # return recorded vapor or sublimation pressure for input CCCCCCCCCCCCCC [tetradecane]
## Output 0.444

---

Can you tell me vapor or sublimation pressure for the items I'm about to list?
- stated-conditions: 383.15 K; Liquid; Closed cell (Static) method
One number for each entry, in kPa.

Consider the following illustrative entries.
compound | vapor or sublimation pressure, kPa
CCCCCC(=O)OCC [ethyl hexanoate] | 16.69
CCCCCCCCCC(=O)OCC [ethyl decanoate] | 0.9771
CCCCCCCCCCCCCC(=O)OCC [ethyl tetradecanoate] | 0.0623

Below: the item to evaluate.
## Input Return reported vapor or sublimation pressure. Input compound: CCCCCCCCCCCCCC
## Output 0.7516

---

- stated-conditions: 393.15 K; Liquid; Closed cell (Static) method
Assignment: determine reported vapor or sublimation pressure for the given molecules.
Answers are plain numbers, in kPa.

Before answering, review these 3 worked examples.
molecule | scale-unit | measured-number
CCCCCCCCCC(=O)OCC [ethyl decanoate] | kPa | 1.586
CCCCCCCCCCCCCC | kPa | 1.23
CCCCCCCCCCCCCC(=O)OCC [ethyl tetradecanoate] | kPa | 0.1143

Read the next record carefully.
## Input Please look at this molecule and report its vapor or sublimation pressure: CCCCCC(=O)OCC [ethyl hexanoate]
## Output 23.94

---

- stated-conditions: 403.15 K; Liquid; Closed cell (Static) method
metric: vapor or sublimation pressure (kPa)
Numbers only, in kPa.

Would you mind listing vapor or sublimation pressure for each of the following molecules?
1. CCCCCCCCCC(=O)OCC [ethyl decanoate]
2. CCCCCCCCCCCCCC [tetradecane]
3. CCCCCC(=O)OCC [ethyl hexanoate]
4. CCCCCCCCCCCCCC(=O)OCC [ethyl tetradecanoate]

## Output
2.498
1.954
33.59
0.2019

---

- stated-conditions: 453.15 K; Liquid; Closed cell (Static) method
I'd appreciate it if you could supply vapor or sublimation pressure values for the items below.
Give bare numbers, in kPa.

Below is a list of compounds. For each, state its recorded vapor or sublimation pressure.
1. CCCCCC(=O)OCC [ethyl hexanoate]
2. CCCCCCCCCC(=O)OCC [ethyl decanoate]
3. CCCCCCCCCCCCCC(=O)OCC [ethyl tetradecanoate]

## Output
1. 139.11
2. 16.84
3. 2.211

## Input Note down vapor or sublimation pressure recorded for CCCCCCCCCCCCCC
## Output 13.6

---

- stated-conditions: 433.15 K; Liquid; Closed cell (Static) method
metric: vapor or sublimation pressure (kPa)
Numbers only, in kPa.

In the examples that follow, each entry is paired with its recorded vapor or sublimation pressure.
molecule | metric | measured-number
CCCCCCCCCCCCCC(=O)OCC [ethyl tetradecanoate] | vapor or sublimation pressure | 0.9198
CCCCCCCCCCCCCC | vapor or sublimation pressure | 6.684
CCCCCCCCCC(=O)OCC [ethyl decanoate] | vapor or sublimation pressure | 8.371

API: the following record is the query input.
## Input For CCCCCC(=O)OCC [ethyl hexanoate] , write its vapor or sublimation pressure.
## Output 82.69
